# STK11 functional score values compiled below
B1: library; numbered along this chain (parent)
chain: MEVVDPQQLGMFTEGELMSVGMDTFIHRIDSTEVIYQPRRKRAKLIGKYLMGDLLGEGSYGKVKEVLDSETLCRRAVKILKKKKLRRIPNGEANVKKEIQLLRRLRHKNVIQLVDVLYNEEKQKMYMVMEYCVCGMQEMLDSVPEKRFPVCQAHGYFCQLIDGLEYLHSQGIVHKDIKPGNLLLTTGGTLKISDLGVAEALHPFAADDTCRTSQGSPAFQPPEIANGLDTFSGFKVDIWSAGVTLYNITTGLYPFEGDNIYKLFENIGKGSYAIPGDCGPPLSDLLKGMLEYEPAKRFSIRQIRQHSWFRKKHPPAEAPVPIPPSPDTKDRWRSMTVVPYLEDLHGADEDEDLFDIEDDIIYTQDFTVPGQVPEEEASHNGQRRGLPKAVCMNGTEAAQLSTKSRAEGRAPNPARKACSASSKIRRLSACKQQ

Variants of: B1
assay_name: STK11 functional score (HeLa growth suppression), rescaled enrichment; synonymous median = 1, nonsense median = 0 (normalised score)
condition: with HeLa; variant type: missense
measured_metric: STK11 functional score

> print(dat)
    changes  test.value
 1    D237N        1.36
 2    L341F       0.562
 3     Q37S        1.34
 4    Q371R        1.55
 5    D208Y        0.93
 6    D194Y      -0.089
 7    P369A        1.43
 8    A410C        1.33
 9    F157M       0.503
10    C158G       0.418
11    G279C       0.657
12     K81N        1.37
13    Y166W       0.846
14    T212G         1.3
15    S213H        1.68
16     R75V        1.27
17    D359W        1.07
18    Q305W       0.981
19    E396W        1.49
20     D68W       0.944
21    E145V       0.644
22    H154V       0.314
